- Experimental target: PARP-1 F2 K141I (Homo sapiens, UniProt P09874 103-214, K141I)
- Sequence (P09874 103-214 K141I): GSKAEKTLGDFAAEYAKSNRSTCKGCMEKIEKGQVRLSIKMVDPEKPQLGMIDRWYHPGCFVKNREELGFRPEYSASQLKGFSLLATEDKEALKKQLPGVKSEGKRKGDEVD
- Assay summary: fluorescence anisotropy; 25 mM NaCl, one-site fit; 50 mM Tris-HCl pH 7.0, 150 uM ZnSO4, 4 mM DTT, 25 C; NaCl 0-200 mM (T2, as in cof; 10 nM DNA) or 25 mM (T3 mutants; 25 nM DNA)
- Particulars: protein: recombinant; label: fluorescein-dT at T8; single-chain dumbbell, 18 bp with central nick, two tetraloops
Parameter measured: pKd
pKd here is simply -log10 of the concentration when that concentration is written in mol/L.

[Q] // pKd lookup, key: CGGTCGATCGTAAGATCGACCGGCGCTGGAGCTTGCTCCAGCGC (structured_DNA, 5'-phosphate) [44-nt nicked dumbbell, 5'-phosphate, fluorescein-dT]
[A] 5.83
